# EXPERIMENTAL DETAILS: clinical
# PARTICULARS: human, in vivo
# Procedure: Patients were administered up to three doses of baloxavir marboxil separated by 3 days (i.e., Days 1, 4, and 7). […] Likewise, total drug exposure simulated on Day 7 area under the plasma concentration-time curve for a dosing interval (AUCtau) was not expected to exceed area under the concentration-time curve from Time 0 to infinity (AUCinf) of the TQT, regardless of dose.
MEASURE NAME: half-life

Please supply the value of reported half-life for the item `O=C1c2c(O)c(=O)ccn2N([C@@H]2c3ccccc3SCc3c2ccc(F)c3F)[C@@H]2COCCN12` ~70 h

---

# EXPERIMENTAL DETAILS: clinical
# PARTICULARS: human, in vivo
MEASURE NAME: Cmax (ng/mL)
Answer in ng/mL, number only, no unit symbol.

State its Cmax for this molecule: `O=C1c2c(O)c(=O)ccn2N([C@@H]2c3ccccc3SCc3c2ccc(F)c3F)[C@@H]2COCCN12` 126
